- TESTED TARGET: T1, ICAM-1 protein antigen (R&D System) (human, UniProt P05362 28-480)
- T1 construct: The assay paragraphs say only 'ICAM-1 (R&D System)'; also called antigen ICAM-1; ICAM-1 antigen
- T1 sequence (P05362 28-480 limits assumed): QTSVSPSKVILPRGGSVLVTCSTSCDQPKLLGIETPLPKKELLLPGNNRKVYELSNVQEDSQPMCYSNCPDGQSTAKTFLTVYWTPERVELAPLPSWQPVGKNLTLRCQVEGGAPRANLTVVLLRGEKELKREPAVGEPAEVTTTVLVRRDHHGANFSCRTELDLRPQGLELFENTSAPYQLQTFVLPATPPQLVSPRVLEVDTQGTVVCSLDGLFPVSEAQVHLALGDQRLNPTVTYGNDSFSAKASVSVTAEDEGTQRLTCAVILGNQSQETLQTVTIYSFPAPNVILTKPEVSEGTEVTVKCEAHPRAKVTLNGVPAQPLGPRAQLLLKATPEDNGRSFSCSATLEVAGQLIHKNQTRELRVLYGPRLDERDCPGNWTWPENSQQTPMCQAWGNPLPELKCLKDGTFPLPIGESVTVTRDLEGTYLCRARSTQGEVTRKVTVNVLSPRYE
- METHOD DESCRIPTION: ELISA, ICAM-1 coated 100 ng/well, anti-human Ig-HRP
Reported OD 450 nm at 40 ng/ml antibody values are given for each entry in this list.

BINDER: humanized anti-ICAM-1 antibody H17L1 (VH17 + VL1), human IgG4/kappa (antibody, V domains shown) VH: QVQLVQSGAEVKKPGASVKISCKGSGYTFTDYALHWVRQAPGQRLEWMGVISTYSGNTDYNQKFRGRATITVDTSASTAYMELSSLRSEDTAVYYCARSLYFGSSGFDYWGQGTALTVSS VL: DVVLTQSPLSLPVTLGQPASISCRSSQTLVYRNGNTYLHWYQQRPGQSPRLLIYKVSNRFSGVPDRFSGSGSGTDFTLKISRVEAEDVGVYFCSQNTHFPYTFGGGTKLEIKT
OD 450 nm at 40 ng/ml antibody: 0.802 OD (450 nm)
--
BINDER: humanized anti-ICAM-1 antibody H5L3 (VH5 + VL3), human IgG4/kappa (antibody, V domains shown, The Arg at the VL/CL junction is in neither entry) VH: QVQLVQSGAEVKKPGASVKISCKASGYTFTDYALHWVRQAPGQRLEWMGVISTYSGNTDYNQKFRGRVTITVDKSATTAYMELSSLRSEDTAVYYCARSLYFGSSGFDYWGQGTALTVSS VL: DVVLTQTPLSSPVTLGQPASISCRSSQTLVYRNGNTYLHWYLQRAGQPPRLLIYKVSNRFSGVPDRFSGSGAGTDFTLKISRVEAEDVGVYFCSQNTHFPYTFGGGTKLEIKT
OD 450 nm at 40 ng/ml antibody: 0.862 OD (450 nm)
--
BINDER: humanized anti-ICAM-1 antibody H4L3 (VH4 + VL3), human IgG4/kappa (antibody, V domains shown, The Arg at the VL/CL junction is in neither entry) VH: QVQLVQSGAEVKKPGASVKVSCKASGYTFTDYALHWVRQAPGQRLEWIGVISTYSGNTDYNQKFRGRVTMTRDTSATTAYLELSSLRSEDTAVYYCARSLYFGSSGFDYWGQGTALTVSS VL: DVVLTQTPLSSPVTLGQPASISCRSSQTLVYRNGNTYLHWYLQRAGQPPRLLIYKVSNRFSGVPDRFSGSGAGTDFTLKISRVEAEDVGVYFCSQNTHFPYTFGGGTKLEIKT
OD 450 nm at 40 ng/ml antibody: 0.832 OD (450 nm)
